Molecular target: Prostaglandin G/H synthase 1 (Homo sapiens, UniProt P23219); further: assay procedure not described here
Sequence (P23219 whole entry): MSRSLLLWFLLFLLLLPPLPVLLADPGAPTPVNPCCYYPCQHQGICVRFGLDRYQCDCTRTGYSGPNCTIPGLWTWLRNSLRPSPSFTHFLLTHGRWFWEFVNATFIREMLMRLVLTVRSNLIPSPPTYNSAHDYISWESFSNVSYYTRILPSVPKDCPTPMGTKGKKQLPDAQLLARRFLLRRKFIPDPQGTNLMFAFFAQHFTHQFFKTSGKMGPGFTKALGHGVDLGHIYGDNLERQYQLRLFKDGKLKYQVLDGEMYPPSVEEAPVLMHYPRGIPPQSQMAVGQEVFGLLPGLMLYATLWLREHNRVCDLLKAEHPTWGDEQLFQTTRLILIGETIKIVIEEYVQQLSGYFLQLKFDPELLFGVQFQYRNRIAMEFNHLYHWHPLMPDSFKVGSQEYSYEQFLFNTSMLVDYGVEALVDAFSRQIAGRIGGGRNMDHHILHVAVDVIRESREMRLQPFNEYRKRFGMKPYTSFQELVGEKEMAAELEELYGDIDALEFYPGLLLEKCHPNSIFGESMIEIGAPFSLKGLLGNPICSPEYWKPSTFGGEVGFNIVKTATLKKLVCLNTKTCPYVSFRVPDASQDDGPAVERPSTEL
Format: functional

Compound	Comparator	AC50 / µM
C[C@]1(COc2ccc(N3CCC(Oc4ccc(OC(F)(F)F)cc4)CC3)cc2)Cn2cc([N+](=O)[O-])nc2O1	=	27.9
CCCC(=O)O[C@H]1[C@H](C)O[C@@H](O[C@H]2[C@H](N(C)C)[C@@H](O)[C@H](O[C@H]3[C@@H](CC=O)C[C@@H](C)[C@@H](O)/C=C/C=C/C[C@@H](C)OC(=O)C[C@@H](O)[C@@H]3OC)O[C@@H]2C)C[C@@]1(C)OC(=O)CC [ROKITAMYCIN]	=	8.78
O=C(O)CCCc1ccc(N(CCCl)CCCl)cc1 [CHLORAMBUCIL]	>	30

Reference source for all entries: ChEMBL document CHEMBL5291721
